conditions: Crystal; visual observation
Normal melting temperature values for the compounds below.

| compound | Normal melting temperature (°C) |
| --- | --- |
| CCCCCCCCCCCC[N+](CC)(CC)CCCCCCCCCCCC.[Br-] [didodecyldiethylammonium bromide] | 52.20 |
| CCCCCCCCCCCCCCCC[N+](C)(C)CC[N+](C)(C)CCCCCCCCCCCCCCCC.[Br-].[Br-] | 175.00 |
| CCCCCCCCCCCC[N+](C)(C)C.[Br-] [dodecyltrimethylammonium bromide] | 265.00 |

Where do these numbers come from? They come from the NIST ThermoML archive (doi:10.1021/acs.jced.5b00367).
